Test system: NCI/ADR-RES ovarian
Experimental Protocol: NCI tumour cell line growth inhibition, 48 h
Measured Property: TGI

For orientation, consider the following solved cases.
INSERT INTO assay_data (compound, reported_value) VALUES
  ('CCCCCCCCOCC1S(=O)(=O)OCCOS1(=O)=O', '> 100 µM'),
  ('O=C(O)C(Cc1ccc(O)c([N+](=O)[O-])c1)N1C(=O)c2ccccc2C1=O (stereo not drawn)', '> 100 µM');

Consider the compound shown here: `COc1cc2[nH]c(-c3ccccc3)cc(=O)c2cc1OC` What is its recorded TGI?
> 100 µM

---

In this section, each of the compounds is paired with its reported TGI.
Test system: KM12 colon
Experimental Protocol: NCI tumour cell line growth inhibition, 48 h
Numbers only here, please. The scale is µM.

Consider the compound shown here: CC1=C(N2CC2)C(=O)c2nc3n(c2C1=O)CCC3O (stereo not drawn) What is its recorded TGI?
0.699

Consider the compound shown here: `CN(C)Cc1cc(C(=O)/C=C/c2ccc(/C=C/C(=O)c3cc(CN(C)C)c(O)c(CN(C)C)c3)cc2)cc(CN(C)C)c1O` What is its recorded TGI?
56.3

---

Tested on: NCI-H460 lung
Experimental Protocol: NCI tumour cell line growth inhibition, 48 h
In this section, each of the compounds is paired with its reported TGI.
Numbers only here, please. The scale is µM.

For orientation, consider the following solved cases.
INSERT INTO assay_data (compound, measured_property, reported_value) VALUES
  ('CC1=C(N2CC2)C(=O)c2nc3n(c2C1=O)CCC3O (centres undefined)', 'TGI', 0.324),
  ('CCC(=O)N1C/C(=C/c2ccc(OC)cc2)C(=O)/C(=C/c2ccc(OC)cc2)C1', 'TGI', 4.48);

Attention now turns to another entry.
// fetch NCI-H460 lung TGI for `CCOC(=O)/C=C/c1ccc(C(=O)OCC)[nH]1`
14.5

---

System: MCF7 breast
Experimental Protocol: NCI tumour cell line growth inhibition, 48 h
In this section, each of the compounds is paired with its reported TGI.

Consider the compound shown here: `Nc1cc(CO)cc(Nc2c3ccccc3nc3occc23)c1` What is its recorded TGI?
66 µM

Consider the compound shown here: `N#C/C(=C(\O)C(=O)O)c1ccc(-c2cccc3ccccc23)cc1` What is its recorded TGI?
> 100 µM

Consider the compound shown here: `CCOC(=O)/C(C1=CC(=O)C(=O)c2ccccc21)=C(/C)NCc1ccccc1` What is its recorded TGI?
4.75 µM

Consider the compound shown here: `O=C1/C(=C\c2cccs2)Oc2ccccc21` What is its recorded TGI?
> 100 µM

Consider the compound shown here: `O=C1NC(=O)C(c2ccccc2Cl)=C1Nc1cccc(O)c1` What is its recorded TGI?
> 20.7 µM

Consider the compound shown here: `O=C1Cc2c(-c3ccccc3)cc(-c3cccc(Cl)c3)nc2-c2ccccc2N1` What is its recorded TGI?
> 22.6 µM

Consider the compound shown here: `Cc1cc(O)cc(C)c1/C=C/c1cncc(C(=O)N(C)C)c1` What is its recorded TGI?
> 25 µM

Consider the compound shown here: O=C(O)C(Cc1ccc(O)c([N+](=O)[O-])c1)N1C(=O)c2ccccc2C1=O (configuration not stated) What is its recorded TGI?
> 100 µM

Consider the compound shown here: N#CC(c1ccccc1)c1cccc2ccccc12 (configuration not stated) What is its recorded TGI?
92.4 µM

Consider the compound shown here: `O=C(O)c1nnsc1COCc1ccccc1` What is its recorded TGI?
> 100 µM

Consider the compound shown here: CCCCCC(C)C[C@H]1CO[C@H](c2ccc[nH]2)N[C@H]1C(=O)OC (some centres not stated) What is its recorded TGI?
> 100 µM

Consider the compound shown here: `COc1ccc(CN=CN/C(C#N)=C(\N)C#N)cc1OC` What is its recorded TGI?
> 100 µM

Consider the compound shown here: C/C(=C\CCC1=CC(=O)OC1)CC[C@@H]1[C@H]2C(=O)CC(C)[C@@]3(C)CC[C@]1(C)[C@@]23C (some centres not stated) What is its recorded TGI?
> 10 µM

Consider the compound shown here: `COc1ccc2c(c1)CC[C@@H]1[C@@H]2CC[C@]2(C)/C(=N/OCCN3CCCCC3)CC[C@@H]12` What is its recorded TGI?
21.8 µM

Consider the compound shown here: COc1cc2c(cc1OCCCC(=O)Nc1cc(C(=O)Nc3cc(C(=O)NCCCN(C)C)n(C)n3)n(C)n1)N=CC1CCCN1C2=O (configuration not stated) What is its recorded TGI?
29.5 µM

Consider the compound shown here: COc1cccc(C2c3cc4c(cc3OC(N3CCOCC3)C2C)OCO4)c1O (configuration not stated) What is its recorded TGI?
> 44.2 µM

Consider the compound shown here: `CCn1c2c(c3c(C(=O)OC)c(O)ccc31)C(=O)c1ccccc1C2=O` What is its recorded TGI?
70.8 µM

Consider the compound shown here: `CC1(C)C(=O)/C(=C\c2ccco2)C[C@]2(C)[C@H]3CC=C4[C@@H]5C[C@](C)(C(=O)O)CC[C@]5(C)CC[C@@]4(C)[C@]3(C)CC[C@@H]12` What is its recorded TGI?
26.2 µM

Consider the compound shown here: CC1(C)CCOC(=O)C(Cl)CC1Cl (configuration not stated) What is its recorded TGI?
> 100 µM

Consider the compound shown here: `O=[N+]([O-])C(=C(NCc1ccccc1)NCc1ccccc1)C(Cl)=C(Cl)Cl` What is its recorded TGI?
> 100 µM

Consider the compound shown here: `COC(=O)c1ccc2c(c1)c1c(C)c3cnccc3c(C)c1n2C` What is its recorded TGI?
0.511 µM

Consider the compound shown here: `CC1(C)N=C(N)N=C(N)N1c1cccc(CSc2ccccc2)c1` What is its recorded TGI?
> 100 µM

Consider the compound shown here: O=C1/C(=C/c2cccs2)N=C(c2ccccc2)N1C1Nc2cc3c(cc2S1)NC(N1C(=O)/C(=C/c2cccs2)N=C1c1ccccc1)S3 (configuration not stated) What is its recorded TGI?
> 100 µM

Consider the compound shown here: `CC(=O)Nc1ccc(Nc2nc(=O)[nH]c(=O)[nH]2)cc1` What is its recorded TGI?
> 100 µM

Consider the compound shown here: O=C1CC(O)c2c(Cl)sc(Cl)c21 (configuration not stated) What is its recorded TGI?
30.5 µM

Consider the compound shown here: `COc1ccc(-c2cn3c(n2)sc2cc(C)ccc23)cc1` What is its recorded TGI?
95.7 µM

Consider the compound shown here: `CN(C)CCOc1ccc(-c2c(Oc3ccc(Cl)cc3)c(=O)oc3ccccc23)cc1` What is its recorded TGI?
> 28.3 µM

---

Tested on: SK-MEL-5 melanoma
Experimental Protocol: NCI tumour cell line growth inhibition, 48 h
Measured Property: TGI (µM)
Numbers only here, please. The scale is µM.

INSERT INTO results (molecule, unit_text, reported_value) VALUES
  ('CC1(C)N=C(N)N=C(N)N1c1cccc(CSc2ccccc2)c1', 'µM', 13.5),
  ('O=c1c(OC/C(=N/O)c2ccccc2)c(-c2ccccc2)oc2ccccc12', 'µM', 15),
  ('CCn1c2c(c3c(C(=O)OC)c(O)ccc31)C(=O)c1ccccc1C2=O', 'µM', 27.6),
  ('O=C1CC(O)c2c(Cl)sc(Cl)c21 (stereo not drawn)', 'µM', 43.5),
  ('O=C1CSC2(CCN(CCCN3c4ccccc4Sc4ccc(Cl)cc43)CC2)N1', 'µM', 23);

Attention now turns to another entry.
Consider the molecule shown here: `CCN(CC)C(=S)SSC1CCCCC1` What is its recorded TGI?
26.3

---

Test system: M14 melanoma
Experimental Protocol: NCI tumour cell line growth inhibition, 48 h
Measured Property: TGI

INSERT INTO assay_data (compound, experimental_system, measured_property, reported_value) VALUES
  ('CSc1n[n+](C)cc(N)c1N', 'M14 melanoma', 'TGI', '> 100 µM'),
  ('CC1=C2N3C[C@@H](n4c(=O)n(C)c(=O)n43)C23CCC1n1c(=O)n(C)c(=O)n13', 'M14 melanoma', 'TGI', '> 100 µM'),
  ('COc1cc(C2c3cc4c(cc3OC(N3CCOCC3)C2C)OCO4)cc(OC)c1O (centres undefined)', 'M14 melanoma', 'TGI', '> 100 µM');

Consider the compound shown here: `O=C1NC(=O)C(c2ccccc2Cl)=C1Nc1cccc(O)c1` What is its recorded TGI?
> 25 µM

---

Test system: SNB-75 CNS
Experimental Protocol: NCI tumour cell line growth inhibition, 48 h
In this section, each of the molecules is paired with its reported TGI.
Numbers only here, please. The scale is µM.

For orientation, consider the following solved cases.
INSERT INTO results (molecule, reported_value) VALUES
  ('CCN(CC)CCNc1ccc(N=Nc2ccc(S(N)(=O)=O)cc2)c2ccccc12', 27),
  ('COc1cc(C(C#N)NNC(=O)c2ccccc2O)ccc1O (configuration not stated)', 8.46),
  ('CCOC(=O)/C(C1=CC(=O)C(=O)c2ccccc21)=C(/C)NCc1ccccc1', 55.5);

Attention now turns to another entry.
Consider the molecule shown here: `COC(=O)c1c(O)ccc2c1c1c(n2C)C(=O)c2ccccc2C1=O` What is its recorded TGI?
15
